- Experimental Target: T1, Hera_RBD (Thermus thermophilus, UniProt O07897 424-510)
- T1 sequence: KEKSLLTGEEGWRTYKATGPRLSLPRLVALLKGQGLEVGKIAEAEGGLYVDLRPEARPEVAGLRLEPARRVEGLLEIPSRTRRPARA
- Run Description: NMR; pH 6.0, 50 mM NaCl, 37 C; Anisotropy: 50 mM Tris/HCl pH 7.5, 150 mM NaCl, 5 mM MgCl2 (Fig 2), 25 C, 50 nM RNA; EMSA: same Tris/NaCl, 12% glycerol, 25 C; NMR: 25 mM Bis-Tris/HCl pH 6.0, 50 mM NaCl, 10% D2O, 37 C
- Experimental Context: protein: recombinant; label: none (NMR, ITC); 5'-fluorescein (EMSA); hairpin with 5' single strand
pKd: −log10 of the molar value.

| Binder | pKd |
| --- | --- |
| GGGUUGGGCUGUUCGCCCAUU (structured_RNA) [21mer] | ~5.22 |
